Would you mind telling me the reported pIC50 of each entry?
measured.on: PDE4B2 (Homo sapiens)
Sequence (Q07343 1-564 isoform Q07343-2, species assumed): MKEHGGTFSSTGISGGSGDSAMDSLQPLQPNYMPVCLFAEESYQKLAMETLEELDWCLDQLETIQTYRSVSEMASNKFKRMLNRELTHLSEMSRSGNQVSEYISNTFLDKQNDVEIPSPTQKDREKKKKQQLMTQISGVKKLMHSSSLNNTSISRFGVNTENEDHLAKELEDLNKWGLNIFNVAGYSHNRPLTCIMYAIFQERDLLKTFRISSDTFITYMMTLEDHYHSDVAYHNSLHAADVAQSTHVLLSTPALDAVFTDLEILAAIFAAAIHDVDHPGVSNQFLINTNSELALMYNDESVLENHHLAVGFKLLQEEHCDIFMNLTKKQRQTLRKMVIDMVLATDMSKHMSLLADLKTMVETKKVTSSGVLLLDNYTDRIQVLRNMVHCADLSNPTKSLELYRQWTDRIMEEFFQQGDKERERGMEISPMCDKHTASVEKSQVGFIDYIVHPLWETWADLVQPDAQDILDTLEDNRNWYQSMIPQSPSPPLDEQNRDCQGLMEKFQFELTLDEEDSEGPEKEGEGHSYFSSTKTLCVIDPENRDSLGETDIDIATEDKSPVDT
recorded.conditions: read-out: PDE4B2 IC50; enzyme assay
In simple prose, pIC50 is minus the logarithm base ten of a concentration in moles per litre.

Kindly indicate its recorded pIC50. Item: [O-][S+]1CCc2nc(N3CCc4cc(N5CC[C@@H](O)C5)ccc4C3)nc(NC3(CO)CCC3)c21 (some centres unmarked)
9.53

Tell me pIC50 reported for [O-][S+]1CCc2nc(N3CCc4cc(N5CC6CC5C6)ccc4C3)nc(NC3(CO)CCC3)c21 (centres unmarked)
9.29

Tell me its pIC50 given [O-][S+]1CCc2nc(N3CC[C@@H]4c5ccc(Cl)nc5OC[C@H]4C3)nc(NC3(CO)CCC3)c21 (some centres unmarked) as the entry.
8.86

For the compound [O-][S+]1CCc2nc(N3CCc4cc(N5C[C@H]6C[C@@H]5CO6)ccc4C3)nc(NC3(CO)CCC3)c21 (some centres unmarked) , report pIC50.
9.74

Check the records and state pIC50 for C[C@H]1CN(c2nc3c(c(NC4(CO)CCC4)n2)[S+]([O-])CC3)Cc2ccc(Cl)cc21 (some centres unmarked)
9.01

Report measured pIC50; entry is [O-][S+]1CCc2nc(N3CCc4cc(N5CCCCC5)ccc4C3)nc(NC3(CO)CCC3)c21 (centres unmarked)
9.95

Name the recorded pIC50 of the compound listed here: C[C@H]1c2ccc(N3CCCC3)cc2CCN1c1nc2c(c(NC3(CO)CCOCC3)n1)[S+]([O-])CC2 (some centres unmarked)
9.02

Give the value of pIC50 reported for the following: [O-][S+]1CCc2nc(N3CCc4cc(N5CCCC5)ncc4C3)nc(NC3(CO)CCC3)c21 (centres unmarked)
9.38

Please report the measured pIC50 for CN1CC(Nc2nc(N3CCc4cc(Cl)ccc4C3)nc3c2[S+]([O-])CC3)CCC1=O (centres unmarked)
10.39

Quote pIC50 reported for [O-][S+]1CCc2nc(N3CCc4cc(N5CC6C(C5)C6(F)F)ccc4C3)nc(NC3(CO)CCC3)c21 (centres unmarked) please.
9.17

Item C[C@H]1CCCN1c1ccc2c(c1)CCN(c1nc3c(c(NC4(CO)CCC4)n1)[S+]([O-])CC3)C2 (some centres unmarked) : provide pIC50
10.01

Complete the entry with pIC50 for COc1nn(C)cc1Nc1nc(N2CCc3cc(N4CCCC4)ccc3[C@@H]2C)nc2c1[S+]([O-])CC2 (some centres unmarked)
9.64

Identify the reported pIC50 for the following entry. [O-][S+]1CCc2nc(N3CCc4cc(N5CC[C@@H](F)C5)ccc4C3)nc(NC3(CO)CCC3)c21 (some centres unmarked)
9.38

Give the reported pIC50 for this compound. NC(=O)Cc1ccc(Nc2nc(N3CCc4cc(Cl)ccc4C3)nc3c2[S+]([O-])CC3)cc1 (centres unmarked)
9.79

Consider the compound C[C@@H]1c2ccc(Br)cc2CCN1c1nc2c(c(NC3(CO)CCC3)n1)[S+]([O-])CC2 (some centres unmarked) . State its measured pIC50.
9.01

Provide pIC50 value for the following compound: CO[C@H]1CCN(c2ccc3c(c2)CCN(c2nc4c(c(NC5(CO)CCC5)n2)[S+]([O-])CC4)C3)C1 (some centres unmarked)
9.53

Please supply the value of reported pIC50 for the item [O-][S+]1CCc2nc(N3CCc4cc(N5CCCC5)ccc4C3)nc(Nc3cn[nH]c3)c21 (centres unmarked)
9.48

Hello, please tell me recorded pIC50 for this one: COc1nn(C)cc1Nc1nc(N2CCc3cc(N4CCCC4)ccc3C2)nc2c1[S+]([O-])CC2 (centres unmarked)
9.38

Answer with reported pIC50 of [O-][S+]1CCc2nc(N3CCc4nc(N5CCCC5)sc4C3)nc(NC3(CO)CCC3)c21 (centres unmarked)
9.02

Provide one value: measured pIC50 of C[C@H]1c2ccc(N3CCCC3)cc2CCN1c1nc2c(c(Nc3cnn(C4COC4)c3)n1)[S+]([O-])CC2 (some centres unmarked)
9.66
